read-out: Intercellular Adhesion Molecule 1 (ICAM1), ICAM1 (gene 3383); experiment: BSK_KF3CT_ICAM1: BioMAP Diversity Plus: KF3CT Assay for Intercellular Adhesion Molecule 1 (ICAM1) Biomarker Activity (AID 2283067); details: primary human keratinocytes with fibroblasts; actives raise or lower the signal
Active and inactive are the calls of the source. Rule for the calls: active = hit-call score of the fitted dose curve at least 0.9, where 1 is the maximum; inactive = score below 0.9.
The categories you may choose from are Y (active), N (inactive)

Use the examples below as a reference point.
molecule=CC(=O)c1c(C)c([N+](=O)[O-])c(C(C)(C)C)c([N+](=O)[O-])c1C group_label=N
molecule=CN(C)C(=S)SC(=S)N(C)C group_label=Y
molecule=CCCCOC(=O)CCCCCCCC(=O)OCCCC group_label=N
molecule=CCN(CC)C(=O)N(CC)CC group_label=N
molecule=CCOC(=O)C(C#N)=C(c1ccccc1)c1ccccc1 group_label=N
molecule=O=C(Nc1ccc2c(O)c(N=Nc3ccc(N=Nc4ccc(S(=O)(=O)O)cc4)cc3)c(S(=O)(=O)O)cc2c1)c1ccccc1 group_label=N

Next item in the queue.
Recorded test call requested for `CS(=O)(=O)c1ccc(C2=C(c3ccccc3)C(=O)OC2)cc1`
N

###

assay: ATG_NRF2_ARE_CIS: Attagene CIS-FACTORIAL HepG2 Assay for human Nuclear Factor Erythroid 2 Related Factor 2 (NFR2) response to Antioxidant Response Elements (ARE) (AID 2282992); conditions: HepG2 Attagene ARE/NRF2 reporter, transcription factor activity; actives raise or lower the signal
The source made the active and inactive calls. How the source made its calls: active means hit-call score of the fitted dose curve at least 0.9, where 1 is the maximum; inactive means score below 0.9.
The categories you may choose from are active, inactive

molecule=C=Cc1ccc(C)cc1 group_label=inactive
molecule=Clc1cc(Cl)c(-c2c(Cl)c(Cl)cc(Cl)c2Cl)cc1Cl group_label=active
molecule=CCC(=O)OCCOc1ccccc1 group_label=inactive

Recorded test call requested for `COCCOC(=O)c1ccccc1C(=O)OCCOC`
inactive

Recorded test call requested for CCOC(=O)C1OC1c1ccccc1 (stereo unspecified)
inactive

Recorded test call requested for COC(=O)c1ccc(C)cc1C1=NC(C)(C(C)C)C(=O)N1 (stereo unspecified) (tested in a mixture with another compound)
inactive

Recorded test call requested for CCCCCCCC(=O)OCC(O)CO (stereo unspecified)
inactive

Recorded test call requested for `CCCCOC(=O)CCCCCCCC(=O)OCCCC`
inactive

Recorded test call requested for `COC(C)(C)CCO`
inactive

Recorded test call requested for CC(C)C(OC(=O)c1ccccc1)C(C)(C)COC(=O)c1ccccc1 (stereo unspecified)
inactive

Recorded test call requested for `IC(I)I`
inactive

Recorded test call requested for `OCc1cccc(Oc2ccccc2)c1`
inactive

Recorded test call requested for CCCC(C)C(O)CC (stereo unspecified)
inactive

Recorded test call requested for `COc1ccc(N=Nc2cc(C)c(N=Nc3ccc(S(=O)(=O)O)cc3)cc2OC)cc1`
active

Recorded test call requested for `CCCC(=O)OCCc1ccccc1`
inactive

Recorded test call requested for `CCNCCO`
inactive

###

read-out: Intercellular Adhesion Molecule 1 (ICAM1), ICAM1 (gene 3383); assay: BSK_KF3CT_ICAM1: BioMAP Diversity Plus: KF3CT Assay for Intercellular Adhesion Molecule 1 (ICAM1) Biomarker Activity (AID 2283067); details: primary human keratinocytes with fibroblasts; actives raise or lower the signal
Active and inactive are the calls of the source. The calls were made as follows: active = hit-call score of the fitted dose curve at least 0.9, where 1 is the maximum; inactive = score below 0.9.
The categories you may choose from are TRUE = active, FALSE = inactive

Use the examples below as a reference point.
compound=CC(C)(N=C=O)c1cccc(C(C)(C)N=C=O)c1 group_label=FALSE
compound=COc1ccc(CCN2CCC(Nc3nc4ccccc4n3Cc3ccc(F)cc3)CC2)cc1 group_label=FALSE
compound="C1=CC2C3C=CC(C3)C2C1 (stereo not drawn)" group_label=FALSE
compound=CC(C)(C)CC(C)(C)c1ccc(OCCOCC[N+](C)(C)Cc2ccccc2)cc1 group_label=TRUE

Recorded test call requested for CC(=O)C1(C)CC2=C(CCCC2(C)C)CC1C (stereo not drawn)
TRUE

Recorded test call requested for C=CC(C)(O)CCC=C(C)C (stereo not drawn)
FALSE

Recorded test call requested for `CSCCC=O`
FALSE

Recorded test call requested for `O=CN1CCOCC1`
FALSE

###

read-out: Actin alpha 1 (ACTA1), ACTA1 (gene 58); assay: BSK_MyoF_ACTA1: BioMAP Diversity Plus: MyoF Assay for Actin alpha 1 (ACTA1) Biomarker Activity (AID 2284244); details: primary human lung fibroblasts
Active and inactive are the calls of the source. How the source made its calls: active means hit-call score of the fitted dose curve at least 0.9, where 1 is the maximum; inactive means score below 0.9.
The categories you may choose from are active, inactive

Use the examples below as a reference point.
compound=CC(C)(N=C=O)c1cccc(C(C)(C)N=C=O)c1 group_label=inactive
compound=CN(c1nccc(=O)[nH]1)C1CCN(c2nc3ccccc3n2Cc2ccc(F)cc2)CC1 group_label=inactive
compound=Clc1cc(Cl)c(-c2c(Cl)c(Cl)cc(Cl)c2Cl)cc1Cl group_label=active
compound=CC(=O)c1c(C)c([N+](=O)[O-])c(C(C)(C)C)c([N+](=O)[O-])c1C group_label=inactive
compound="CC(C=O)Cc1ccc(C(C)(C)C)cc1 (stereo unspecified)" group_label=active

Next item in the queue.
Recorded test call requested for `CCCCOC(=O)CCCCCCCC(=O)OCCCC`
inactive

###

experiment: BSK_LPS_PGE2: BioMAP Diversity Plus: LPS Assay for Prostaglandin E2 (PGE2) Biomarker Activity (AID 2283082); conditions: primary human HUVEC with PBMC; actives raise or lower the signal;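 for AC50: secreted prostaglandin E2 measured by ELISA in LPS-stimulated co-culture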
The source made the active and inactive calls. How the source made its calls: active means hit-call score of the fitted dose curve at least 0.9, where 1 is the maximum; inactive means score below 0.9.
measured.metric: AC50

Known results for compounds:
compound=CCCCCC(C=O)=Cc1ccccc1 recorded_value="34 µM (active)"
compound=CN(c1nccc(=O)[nH]1)C1CCN(c2nc3ccccc3n2Cc2ccc(F)cc2)CC1 recorded_value=inactive
compound="CCC(C)c1cc([N+](=O)[O-])cc([N+](=O)[O-])c1OC(=O)OC(C)C (centres undefined)" recorded_value="5.42 µM (active)"
compound=c1ccc(CCc2ccccc2)cc1 recorded_value=inactive
compound=CC1(C)C2=CCCC(C)(C)[C@]23CC[C@H]1C3 recorded_value=inactive
compound=c1ccc(Oc2ccccc2)cc1 recorded_value=inactive
compound=IC(I)I recorded_value=inactive
compound=O=C1OC[C@H](Cc2cccc(O)c2)[C@H]1Cc1cccc(O)c1 recorded_value=inactive

Moving on to the next compound.
Which AC50 value is on record for `O=C1c2ccccc2C(=O)c2c(O)ccc(O)c21` ?
0.233 µM (active)

###

assay: ATG_RORE_CIS: Attagene CIS-FACTORIAL HepG2 Assay for human RAR-related Orphan Receptor Element (RORE) (AID 2282959); conditions: HepG2 Attagene cis-factorial RORE reporter, mRNA; actives raise or lower the signal
Active and inactive are the calls of the source. How the source made its calls: active means hit-call score of the fitted dose curve at least 0.9, where 1 is the maximum; inactive means score below 0.9.
measured.metric: AC50

Known results for molecules:
molecule=Cc1cc(=O)oc2cc(N(C)C)ccc12 recorded_value=inactive
molecule=CCOc1ccc(NC(=O)CC(C)=O)cc1 recorded_value=inactive
molecule=Cc1occc(=O)c1OC(=O)C(C)C recorded_value=inactive
molecule=CCCCCCCCC=CCCCCCCCC1=NCCN1CCO recorded_value=inactive
molecule=C[C@H]1C[C@@H](O)CC(C)(C)C1 recorded_value=inactive

Which AC50 value is on record for `O=C(Nc1ccc2c(c1)Cc1ccccc1-2)C(F)(F)F` ?
17.5 µM (active)

Which AC50 value is on record for `CS(=O)(=O)c1ccc(C2=C(c3ccccc3)C(=O)OC2)cc1` ?
inactive

Which AC50 value is on record for `C=Cc1ccncc1` ?
10.2 µM (active)

Which AC50 value is on record for `CCCN(CCC)S(=O)(=O)c1ccc(C(=O)O)cc1` ?
inactive

Which AC50 value is on record for `CCC(C)=O` ?
inactive

Which AC50 value is on record for CCCCCCCCCCCC(=O)OCC(O)CO (stereo not given) ?
inactive

Which AC50 value is on record for `CC(C)(C)OC(=O)c1ccc(O)cc1` ?
72.5 µM (active)

Which AC50 value is on record for CCCC(C)C(O)CC (stereo not given) ?
inactive

Which AC50 value is on record for `C=C(C)[C@H]1CC=C(C)C(=O)C1` ?
inactive

Which AC50 value is on record for CC(=O)C(C)O (stereo not given) ?
inactive

###

test: BSK_hDFCGF_SRB: Viability Assessment in the BioMAP Diversity Plus: hDFCGF Assay (AID 2283061); conditions: primary human foreskin fibroblasts;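 note: cells exposed to compound for 24 h before the read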
Active and inactive are the calls of the source. How the source made its calls: active means hit-call score of the fitted dose curve at least 0.9, where 1 is the maximum; inactive means score below 0.9.
measured.metric: AC50

Known results for molecules:
molecule=CCOC(=O)C(C#N)=C(c1ccccc1)c1ccccc1 recorded_value=inactive
molecule=c1ccc(CCc2ccccc2)cc1 recorded_value="30.3 µM (active)"
molecule=CSCCC=O recorded_value=inactive
molecule=C=C(C)[C@H]1CC=C(C)C(=O)C1 recorded_value=inactive
molecule=C=C(C)C(=O)OCC(CC)(COC(=O)C(=C)C)COC(=O)C(=C)C recorded_value="32.1 µM (active)"
molecule=Cc1cc(CCC(=O)OCCOCCOCCOC(=O)CCc2cc(C)c(O)c(C(C)(C)C)c2)cc(C(C)(C)C)c1O recorded_value=inactive

Moving on to the next molecule.
Which AC50 value is on record for CC(CN=Cc1ccccc1O)N=Cc1ccccc1O (configuration not stated) ?
inactive
